Target: Serine/threonine-protein kinase pim-1 (Homo sapiens, UniProt P11309); further: in the data inactive means no Kd found up to 30 µM
Sequence (P11309 whole entry): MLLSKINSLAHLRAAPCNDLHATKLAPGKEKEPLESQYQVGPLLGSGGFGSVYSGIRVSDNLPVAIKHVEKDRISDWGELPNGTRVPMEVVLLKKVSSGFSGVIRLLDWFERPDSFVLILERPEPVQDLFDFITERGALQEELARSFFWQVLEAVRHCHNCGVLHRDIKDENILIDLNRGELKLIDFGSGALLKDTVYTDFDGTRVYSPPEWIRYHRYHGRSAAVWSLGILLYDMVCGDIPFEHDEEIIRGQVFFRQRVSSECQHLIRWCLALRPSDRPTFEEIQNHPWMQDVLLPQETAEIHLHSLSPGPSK
The source made the active and inactive calls.
Allowed answers: active, inactive

Completed entries (count: 3):
compound: CCN1CCN(Cc2ccc(-c3cc4c(N[C@H](C)c5ccccc5)ncnc4[nH]3)cc2)CC1
qualitative-label: inactive

compound: COc1ccc(-c2ccc3c(N4CCOC[C@@H]4C)nc(N4CCOC[C@@H]4C)nc3n2)cc1CO
qualitative-label: inactive

compound: C=CC(=O)N1CCC(Oc2cc3c(Nc4ccc(Cl)c(Cl)c4F)ncnc3cc2OC)CC1
qualitative-label: inactive

## Input Field: outcome | Entry: CCn1c(=O)c(-c2cc[nH]n2)cc2c(C)nc(N)nc21
## Output inactive

## Input # outcome recorded in this test, key = COc1cc(OC)c(/C=C/S(=O)(=O)Cc2ccc(OC)c(NCC(=O)O)c2)c(OC)c1
## Output inactive

## Input Fill in: this test's call for COc1cc(CCc2cc(NC(=O)c3ccc(N4C[C@@H](C)N[C@@H](C)C4)cc3)n[nH]2)cc(OC)c1 is ___
## Output inactive

## Input Which outcome was assigned to CNC(=O)c1cc(Oc2ccc(NC(=O)Nc3ccc(Cl)c(C(F)(F)F)c3)c(F)c2)ccn1 in this test?
## Output inactive

====

Target: Mitogen-activated protein kinase kinase kinase 20 (Homo sapiens, UniProt Q9NYL2); further: in the data inactive means no Kd found up to 30 µM
Sequence (Q9NYL2 whole entry): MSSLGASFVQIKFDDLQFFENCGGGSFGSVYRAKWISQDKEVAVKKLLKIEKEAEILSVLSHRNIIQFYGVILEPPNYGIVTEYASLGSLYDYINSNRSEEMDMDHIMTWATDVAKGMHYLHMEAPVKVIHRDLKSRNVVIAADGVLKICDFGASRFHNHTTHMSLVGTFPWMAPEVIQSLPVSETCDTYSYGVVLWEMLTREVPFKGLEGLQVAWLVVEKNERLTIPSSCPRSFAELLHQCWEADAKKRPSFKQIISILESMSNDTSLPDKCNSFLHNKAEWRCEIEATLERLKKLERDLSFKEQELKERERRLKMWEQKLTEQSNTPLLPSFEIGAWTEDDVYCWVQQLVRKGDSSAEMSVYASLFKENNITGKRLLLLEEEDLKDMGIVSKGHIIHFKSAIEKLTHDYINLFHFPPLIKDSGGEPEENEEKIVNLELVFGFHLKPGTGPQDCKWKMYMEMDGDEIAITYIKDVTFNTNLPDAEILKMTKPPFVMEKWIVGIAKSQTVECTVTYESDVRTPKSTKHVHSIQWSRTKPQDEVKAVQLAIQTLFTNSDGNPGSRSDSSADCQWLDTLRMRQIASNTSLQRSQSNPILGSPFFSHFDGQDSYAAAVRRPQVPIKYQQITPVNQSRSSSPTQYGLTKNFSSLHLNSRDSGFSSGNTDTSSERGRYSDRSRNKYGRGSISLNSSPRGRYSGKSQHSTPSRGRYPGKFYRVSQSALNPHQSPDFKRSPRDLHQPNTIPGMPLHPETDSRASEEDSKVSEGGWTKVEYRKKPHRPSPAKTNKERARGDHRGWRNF
The source made the active and inactive calls.
In this exercise, the only acceptable responses are class 1 = active, class 0 = inactive

Some entries whose results are on file:
compound-smiles: Cc1ccc(-n2nc(C(C)(C)C)cc2NC(=O)NCc2cc(F)ccc2Oc2ccc3c(cnn3CCO)c2)cc1
qualitative-label: class 1
//
compound-smiles: CN1CCC(CNc2ccc3ncc(-c4cccc(OC(F)(F)F)c4)n3n2)CC1
qualitative-label: class 0
//
compound-smiles: Cc1ccc(S(=O)(=O)Nc2nc3ccccc3nc2Nc2ccc3nsnc3c2)cc1
qualitative-label: class 0
//
compound-smiles: CC(C)Nc1cc(-c2c[nH]c(C(=O)N[C@H](CO)c3cccc(Cl)c3)c2)c(Cl)cn1
qualitative-label: class 0
//
compound-smiles: Cc1cc(-c2cc(O)ccc2Cl)cc2nnc(Nc3ccc(OCCN4CCCC4)cc3)nc12
qualitative-label: class 0

## Input Any idea what this test logged for CCn1c(=O)c(-c2cc[nH]n2)cc2c(C)nc(N)nc21 ?
## Output class 0

## Input Entry CNC(=O)c1ccc(-c2cnc3ncc(Cc4ccc5ncccc5c4)n3n2)cc1F : call = ?
## Output class 0

## Input Please share the test call associated with CC[C@H](Nc1ncnc2[nH]cnc12)c1nc2cccc(F)c2c(=O)n1-c1ccccc1 .
## Output class 0

## Input Entry C[C@@H](Nc1cc(F)cc(F)c1)c1cc(C(=O)N(C)C)cc2c(=O)cc(N3CCOCC3)oc12 : call = ?
## Output class 0

====

Molecular target: Citron Rho-interacting kinase (Homo sapiens); further: in the data inactive means no Kd found up to 30 µM
Sequence (O14578 whole entry): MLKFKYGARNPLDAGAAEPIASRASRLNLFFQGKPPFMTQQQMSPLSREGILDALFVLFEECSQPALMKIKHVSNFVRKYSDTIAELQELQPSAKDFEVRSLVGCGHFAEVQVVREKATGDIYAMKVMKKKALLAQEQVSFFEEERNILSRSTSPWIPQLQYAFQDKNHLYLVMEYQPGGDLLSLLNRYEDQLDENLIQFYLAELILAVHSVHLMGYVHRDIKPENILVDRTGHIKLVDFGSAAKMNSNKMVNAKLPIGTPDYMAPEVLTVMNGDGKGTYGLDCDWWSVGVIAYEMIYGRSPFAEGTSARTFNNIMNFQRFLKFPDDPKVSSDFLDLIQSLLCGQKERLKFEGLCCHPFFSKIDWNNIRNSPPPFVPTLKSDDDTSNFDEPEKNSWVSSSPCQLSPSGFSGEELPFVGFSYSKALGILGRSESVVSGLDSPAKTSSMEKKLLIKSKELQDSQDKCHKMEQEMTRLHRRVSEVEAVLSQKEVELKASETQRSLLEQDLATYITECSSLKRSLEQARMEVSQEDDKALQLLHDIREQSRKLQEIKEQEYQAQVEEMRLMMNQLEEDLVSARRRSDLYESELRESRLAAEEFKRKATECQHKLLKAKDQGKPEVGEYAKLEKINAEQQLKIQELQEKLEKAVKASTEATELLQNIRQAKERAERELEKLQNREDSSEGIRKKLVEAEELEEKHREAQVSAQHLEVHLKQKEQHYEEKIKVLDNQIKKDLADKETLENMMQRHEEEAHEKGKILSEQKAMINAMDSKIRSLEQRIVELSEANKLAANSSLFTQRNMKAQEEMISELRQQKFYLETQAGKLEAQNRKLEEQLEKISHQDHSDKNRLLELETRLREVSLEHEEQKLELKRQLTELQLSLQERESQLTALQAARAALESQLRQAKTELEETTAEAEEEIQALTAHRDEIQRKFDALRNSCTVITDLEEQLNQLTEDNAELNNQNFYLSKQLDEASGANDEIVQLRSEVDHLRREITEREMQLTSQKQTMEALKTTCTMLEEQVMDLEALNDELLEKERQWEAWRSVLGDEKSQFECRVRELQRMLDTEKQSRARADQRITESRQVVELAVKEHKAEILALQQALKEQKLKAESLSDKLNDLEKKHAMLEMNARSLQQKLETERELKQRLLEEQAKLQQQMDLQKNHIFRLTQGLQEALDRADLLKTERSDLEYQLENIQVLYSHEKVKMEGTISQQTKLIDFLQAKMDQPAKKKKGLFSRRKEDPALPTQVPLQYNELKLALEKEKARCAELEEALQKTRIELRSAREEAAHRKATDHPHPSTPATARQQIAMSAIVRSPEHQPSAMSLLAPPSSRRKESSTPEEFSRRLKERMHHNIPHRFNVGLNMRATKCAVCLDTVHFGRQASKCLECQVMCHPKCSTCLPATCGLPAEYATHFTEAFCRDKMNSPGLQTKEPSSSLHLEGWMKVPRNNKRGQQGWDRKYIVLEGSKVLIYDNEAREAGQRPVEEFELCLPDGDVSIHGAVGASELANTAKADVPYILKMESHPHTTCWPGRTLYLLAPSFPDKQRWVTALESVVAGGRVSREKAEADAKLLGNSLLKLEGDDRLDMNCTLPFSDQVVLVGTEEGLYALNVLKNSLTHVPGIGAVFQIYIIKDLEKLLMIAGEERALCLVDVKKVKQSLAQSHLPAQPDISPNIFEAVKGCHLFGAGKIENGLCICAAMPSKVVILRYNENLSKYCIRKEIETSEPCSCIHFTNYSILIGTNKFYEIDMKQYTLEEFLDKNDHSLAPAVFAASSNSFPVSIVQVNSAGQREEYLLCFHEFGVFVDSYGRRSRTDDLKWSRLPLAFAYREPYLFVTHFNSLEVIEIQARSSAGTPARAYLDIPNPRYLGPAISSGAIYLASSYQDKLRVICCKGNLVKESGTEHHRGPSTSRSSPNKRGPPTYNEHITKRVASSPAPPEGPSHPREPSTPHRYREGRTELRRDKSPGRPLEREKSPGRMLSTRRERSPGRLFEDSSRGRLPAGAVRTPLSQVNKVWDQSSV
The source made the active and inactive calls.
Use one of these outcomes when replying: Yes for active, No for inactive

Recorded results for 6 compounds are shown here.
compound: Cn1cc(-c2ccc(F)c(C(F)(F)F)c2)nc1C1CCN(c2ncnc3[nH]ncc23)CC1 [LY-2584702]
measured-target: Citron Rho-interacting kinase (Homo sapiens); further: in the data inactive means no Kd found up to 30 µM
qualitative-label: No

compound: OCCn1cc(-c2cnc3nnn(Cc4ccc5ncccc5c4)c3n2)cn1 [PF-04217903]
measured-target: Citron Rho-interacting kinase (Homo sapiens); further: in the data inactive means no Kd found up to 30 µM
qualitative-label: No

compound: CN1CCC(COc2cnc(-c3cccc(Cn4nc(-c5cccc(C#N)c5)ccc4=O)c3)nc2)CC1 [TEPOTINIB]
measured-target: Citron Rho-interacting kinase (Homo sapiens); further: in the data inactive means no Kd found up to 30 µM
qualitative-label: No

compound: Cc1nc(N)sc1-c1ccnc(Nc2ccc(N3CCOCC3)cc2)n1 [CYC-116]
measured-target: Citron Rho-interacting kinase (Homo sapiens); further: in the data inactive means no Kd found up to 30 µM
qualitative-label: Yes

compound: Cc1ccc(NC(=O)c2ccc(CN3CC[C@H](N(C)C)C3)c(C(F)(F)F)c2)cc1Nc1nccc(-c2cncnc2)n1 [BAFETINIB]
measured-target: Citron Rho-interacting kinase (Homo sapiens); further: in the data inactive means no Kd found up to 30 µM
qualitative-label: No

compound: CC(C)Nc1cc(-c2c[nH]c(C(=O)N[C@H](CO)c3cccc(Cl)c3)c2)c(Cl)cn1 [ULIXERTINIB]
measured-target: Citron Rho-interacting kinase (Homo sapiens); further: in the data inactive means no Kd found up to 30 µM
qualitative-label: No

## Input Hi, do you know how Cc1cc(-c2cc(O)ccc2Cl)cc2nnc(Nc3ccc(OCCN4CCCC4)cc3)nc12 came out in this test?
## Output Yes

## Input How was O=c1sn(-c2cccc3ccccc23)c(=O)n1Cc1ccccc1 [TIDEGLUSIB] classified in this test?
## Output No

## Input So what was the verdict on CNC(=O)c1cc(Oc2ccc(NC(=O)Nc3ccc(Cl)c(C(F)(F)F)c3)c(F)c2)ccn1 [REGORAFENIB] in this test?
## Output No

## Input // param item: COc1cc(CCc2cc(NC(=O)c3ccc(N4C[C@@H](C)N[C@@H](C)C4)cc3)n[nH]2)cc(OC)c1 [AZD-4547] ; yields the recorded call
## Output No
